# experiment-description: Aqueous solubility at pH 6.8
# Type: physicochemical
observable: solubility (µg/mL)

Illustrative cases are given below, each with its answer.
line-notation: CN1CCC(CCOc2nc(C#N)nc(NCC3CCC4(CC3)CC4)c2Br)CC1
observable: solubility
unit-of-measurement: µg/mL
obs-value: 11
--
line-notation: CN1CCC(Oc2ccc(NC(=O)c3cnc(C#N)nc3NCC3CCC4(CC3)CC4)c(-c3ccccc3)c2)CC1
observable: solubility
unit-of-measurement: µg/mL
obs-value: 2

(P) N#Cc1ncc(C(=O)N[C@H](Cc2ccccc2)CN2CCCC2)c(NCC2CCC3(CC2)CC3)n1
(Q) CN1CCC(CNC(=O)c2cnc(C#N)nc2NCC2CCC3(CC2)CC3)(c2ccccc2)CC1
Of the two listed items, P and Q , which carries the larger solubility figure? Use the label to indicate which entry you chose.
Q
(Q: 89 µg/mL, P: 27 µg/mL)
